system: Vero E6 infected with SARS-CoV-2; test: inhibition of SARS-CoV-2 cytopathic effect; higher = more antiviral protection, active = above 15; settings: 100 nM; 48 h
measure.name: inhibition of SARS-CoV-2 cytopathic effect (%)
Numbers only here, please. The scale is %.

stdin: Fill in: inhibition of SARS-CoV-2 cytopathic effect of O=C(c1ccc(Cl)o1)N1CC2CNCC2C1 (stereo not given) is ___
stdout: 2.2

stdin: Further, for Cc1ccc2c(c1)=C(c1ccccc1)C(C1=NN(C(=O)CCC(=O)O)C(c3ccc(Br)cc3)C1)C(=O)N=2 (stereo not given) ?
stdout: 2.84

stdin: Further, for `C[C@@]1(C(=O)O)NCCc2cc(O)c(O)cc21` ?
stdout: -1.16

stdin: Further, for `C=CC(=O)c1ccc2ccccc2c1` ?
stdout: -2.73

stdin: Further, for `CCN(CC)CCOC(=O)c1ccc(N)cc1` ?
stdout: -0.82

stdin: Further, for `COc1cc(C#N)ccc1S(=O)(=O)Nc1ccc2c(c1)cc(C)c(=O)n2C` ?
stdout: 0.3

stdin: Further, for `O=C(Nc1ccc(N2CCC(C(=O)N3CCOCC3)CC2)cc1)c1cnc(Oc2ccccc2)nc1` ?
stdout: 2.38

stdin: Further, for `CSc1ccc(OCc2ncc([N+](=O)[O-])n2C)cc1` ?
stdout: -1.88

stdin: Further, for `CC(=O)Nc1cccc(O)c1` ?
stdout: 3.07

stdin: Further, for CNC1CCCN(c2c(F)cc3c(=O)c(C(=O)O)cn(C4CC4)c3c2OC)C1 (stereo not given) ?
stdout: 1.91

###

system: Vero E6 infected with SARS-CoV-2; assay: inhibition of SARS-CoV-2 cytopathic effect; higher = more antiviral protection, active = above 15; conditions: 100 nM; 48 h
measure.name: inhibition of SARS-CoV-2 cytopathic effect (%)
Numbers only here, please. The scale is %.

CC(C)(C)c1ccc2cc(C#N)c(C#N)cc2c1 ... -1.56
CC(=O)Nc1ccc(OC(C)=O)cc1 [diacetamate] ... 3.04

stdin: Fill in: inhibition of SARS-CoV-2 cytopathic effect of `CCN1CCN(C(=O)Cc2ccc(Nc3ncc(F)c(Nc4ccc(C(=O)Nc5ccccc5Cl)cc4)n3)cc2)CC1` is ___
stdout: -0.58

stdin: Further, for `CCN(CC)CC1CCN(c2ncc3ncnc(Nc4ccc(F)c(Cl)c4)c3n2)CC1` ?
stdout: -3

stdin: Further, for `O=C(O)C[C@H]1CC[C@H](c2ccc(-c3ccc(Nc4ccc(C(F)(F)F)nc4)cn3)cc2)CC1` ?
stdout: -0.93

stdin: Further, for `COc1cc2ncnc(Oc3cccc(NC(=O)Nc4cc(C(C)(C)C(F)(F)F)on4)c3)c2cc1OC` ?
stdout: 2.72

stdin: Further, for `CC(=O)OCC1=C(C(=O)O)N2C(=O)[C@@H](N)[C@H]2SC1` ?
stdout: -5.2

stdin: Further, for `CC(=O)c1cc2c(o1)C(=O)c1ccccc1C2=O` ?
stdout: 1.42

stdin: Further, for CC(C)(C)NCC(O)COc1cccc2[nH]c(=O)[nH]c12 (centres undefined) ?
stdout: -0.12

###

tested on: Vero E6 infected with SARS-CoV-2; assay: morphology score (similarity to uninfected cells); higher = more like uninfected cells; settings: 24 h
measure.name: morphology score

Cc1ccc(S(=O)(=O)NC(=O)NN2CC3CCCC3C2)cc1 (stereo not given) [gliclazide] (10 µM) ... 0.0635
O=C(O)COC(=O)Cc1ccccc1Nc1c(Cl)cccc1Cl [aceclofenac] (10 µM) ... -0.0479
COc1cccc(-c2ccc(NC(=O)C3=C(C(=O)O)CCC3)c(F)c2)c1 (10 µM) ... 0.159
O=[N+]([O-])c1nccn1CC(O)CN1CCCCC1 (stereo not given) [pimonidazole] (10 µM) ... 0.0622

stdin: Fill in: morphology score of CCC(=O)[C@@]1(C)[C@H](C)C[C@H]2[C@@H]3CCC4=CC(=O)C=C[C@]4(C)[C@H]3[C@@H](O)C[C@@]21C [rimexolone] (10 µM) is ___
stdout: 0.134
